This section presents compounds with their documented inhibition values.
Target: LmjIPCS (inositol phosphorylceramide synthase from L. major) (Leishmania major, UniProt E9AFX2)
Sequence (E9AFX2 1-338): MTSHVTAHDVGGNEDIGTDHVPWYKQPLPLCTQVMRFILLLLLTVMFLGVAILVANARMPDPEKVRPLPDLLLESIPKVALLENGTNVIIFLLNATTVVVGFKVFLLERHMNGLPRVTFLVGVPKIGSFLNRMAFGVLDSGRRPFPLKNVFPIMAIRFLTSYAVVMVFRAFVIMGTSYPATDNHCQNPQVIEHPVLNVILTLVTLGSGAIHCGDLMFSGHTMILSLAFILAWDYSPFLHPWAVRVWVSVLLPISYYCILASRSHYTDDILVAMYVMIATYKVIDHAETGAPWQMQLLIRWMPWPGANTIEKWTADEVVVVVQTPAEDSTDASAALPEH
Assay: biochemical
Format: biochemical
Parameters: dose or concentration left out as unconfirmed
Settings: screening of NINDS set, sheet Screen 1; read-out: inhibition LmjIPCS
Where a SMILES comes first, the peptide text is derived from it.
reported_metric: inhibition (%)

[[record]]
compound = "CO/N=C(\\C(=O)N[C@@H]1C(=O)N2C(C(=O)O)=C(CSc3nc(=O)c(=O)[nH]n3C)CS[C@H]12)c1csc(N)n1"
reported_metric = "inhibition"
reported_measurement = 5.34

[[record]]
compound = "CC(=O)Oc1cccc(O)c1 [RESORCINOL MONOACETATE]"
reported_metric = "inhibition"
reported_measurement = 4

[[record]]
compound = "O=c1oc2cc(O)ccc2s1"
reported_metric = "inhibition"
reported_measurement = 3

[[record]]
compound = "Cc1cc(=O)[nH]c(=S)[nH]1"
reported_metric = "inhibition"
reported_measurement = 7

[[record]]
compound = "O=C(O)c1cc2cc(Cl)ccc2[nH]1"
reported_metric = "inhibition"
reported_measurement = 9

[[record]]
compound = "CCOC(=O)C(Cc1ccc(O)cc1)NC(C)=O (stereo not drawn)"
reported_metric = "inhibition"
reported_measurement = 3

[[record]]
compound = "NNC(=O)c1ccncc1"
reported_metric = "inhibition"
reported_measurement = 9

[[record]]
compound = "O=C(O)c1ccc(S(=O)(=O)N(Cl)Cl)cc1"
reported_metric = "inhibition"
reported_measurement = 10

[[record]]
compound = "CC(C)[C@H](N)C(=O)N[C@@H](Cc1c[nH]c2ccccc12)C(=O)O [VALYLTRYPTOPHAN] (H-Val-Trp-OH)"
reported_metric = "inhibition"
reported_measurement = 6


---

This section presents molecules with their documented inhibition at 20000 µM values.
Target: UniProt E9AFX2
Sequence (E9AFX2 1-338): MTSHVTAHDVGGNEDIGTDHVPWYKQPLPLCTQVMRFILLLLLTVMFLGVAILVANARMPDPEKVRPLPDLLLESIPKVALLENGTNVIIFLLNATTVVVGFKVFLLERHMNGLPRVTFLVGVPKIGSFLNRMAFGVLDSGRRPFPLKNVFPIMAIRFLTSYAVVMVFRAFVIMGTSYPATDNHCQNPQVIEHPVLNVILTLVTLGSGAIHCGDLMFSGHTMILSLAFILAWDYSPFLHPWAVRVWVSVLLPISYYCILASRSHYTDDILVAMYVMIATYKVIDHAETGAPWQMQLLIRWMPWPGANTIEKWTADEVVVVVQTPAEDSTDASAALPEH
Assay: biochemical
Type: biochemical
Details: read-out: 20mM inhibition LmjIPCS
Where a name gives a salt, the structure may show the parent alone.
reported_metric: inhibition at 20000 µM

[[record]]
molecule = "CCCCCC(C)N (stereo not drawn) [TUAMINOHEPTANE]"
reported_measurement = "26%"

[[record]]
molecule = "COc1ccc(-c2oc3c(CC=C(C)C)c(O[C@@H]4O[C@H](CO)[C@@H](O)[C@H](O)[C@H]4O)cc(O)c3c(=O)c2O[C@@H]2O[C@@H](C)[C@H](O)[C@@H](O)[C@H]2O)cc1 [ICARIIN]"
reported_measurement = "10%"

[[record]]
molecule = "NCCCCN=C(N)N [AGMATINE SULFATE]"
reported_measurement = "24%"

[[record]]
molecule = "Cc1ccc(S(=O)(=O)NC(=O)NN2CC3CCCC3C2)cc1 (stereo not drawn) [GLICLAZIDE]"
reported_measurement = "14%"

[[record]]
molecule = "Oc1noc2c1CCNC2 [GABOXADOL]"
reported_measurement = "-24%"

[[record]]
molecule = "CCCc1nc(C(C)(C)O)c(C(=O)OCc2oc(=O)oc2C)n1Cc1ccc(-c2ccccc2-c2nnn[nH]2)cc1 [OLMESARTAN MEDOXOMIL]"
reported_measurement = "21%"

[[record]]
molecule = "COc1ccc2c(c1)[nH]c1c(C)nccc12 [HARMINE]"
reported_measurement = "32%"

[[record]]
molecule = "CC(C(=O)O)c1ccc(N2Cc3ccccc3C2=O)cc1 (stereo not drawn) [INDOPROFEN]"
reported_measurement = "-1.7%"

[[record]]
molecule = "O=C1NS(=O)(=O)c2ccccc21 [SACCHARIN]"
reported_measurement = "3.67%"


---

Target: LmjIPCS (inositol phosphorylceramide synthase from L. major) (Leishmania major, UniProt E9AFX2)
Sequence (E9AFX2 1-338): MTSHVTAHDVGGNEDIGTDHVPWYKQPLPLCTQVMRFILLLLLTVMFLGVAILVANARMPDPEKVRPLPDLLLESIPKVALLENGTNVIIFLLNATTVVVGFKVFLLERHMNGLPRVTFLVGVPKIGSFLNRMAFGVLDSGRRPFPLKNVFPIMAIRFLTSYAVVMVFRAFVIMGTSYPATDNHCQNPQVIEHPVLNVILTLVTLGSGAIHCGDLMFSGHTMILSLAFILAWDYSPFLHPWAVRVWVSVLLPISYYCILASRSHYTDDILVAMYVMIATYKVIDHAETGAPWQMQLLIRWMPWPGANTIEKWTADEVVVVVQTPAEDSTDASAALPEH
Assay: biochemical
Format: biochemical
Where a name gives a salt, the structure may show the parent alone.
Output fulfilled for 20mM inhibition LmjIPCS not less than 40%; output not fulfilled otherwise.

[[record]]
molecule = "C[C@]12CC[C@@H](OS(=O)(=O)O)C[C@@H]1CC[C@@H]1[C@@H]2CC[C@]2(C)C(=O)CC[C@@H]12 [ANDROSTERONE Sulfate]"
class_label = "not fulfilled"

[[record]]
molecule = "NCC(CC(=O)O)c1ccc(Cl)cc1 (centres unmarked) [BACLOFEN]"
class_label = "fulfilled"

[[record]]
molecule = "O=C1CCO1 [BETA-PROPIOLACTONE]"
class_label = "not fulfilled"

[[record]]
molecule = "N=C(N)N/N=C/c1c(Cl)cccc1Cl [GUANABENZ ACETATE]"
class_label = "fulfilled"


---

This section presents compounds with their documented inhibition at 20000 µM values.
Biological target: LmjIPCS (inositol phosphorylceramide synthase from L. major) (Leishmania major)
Sequence (E9AFX2 1-338): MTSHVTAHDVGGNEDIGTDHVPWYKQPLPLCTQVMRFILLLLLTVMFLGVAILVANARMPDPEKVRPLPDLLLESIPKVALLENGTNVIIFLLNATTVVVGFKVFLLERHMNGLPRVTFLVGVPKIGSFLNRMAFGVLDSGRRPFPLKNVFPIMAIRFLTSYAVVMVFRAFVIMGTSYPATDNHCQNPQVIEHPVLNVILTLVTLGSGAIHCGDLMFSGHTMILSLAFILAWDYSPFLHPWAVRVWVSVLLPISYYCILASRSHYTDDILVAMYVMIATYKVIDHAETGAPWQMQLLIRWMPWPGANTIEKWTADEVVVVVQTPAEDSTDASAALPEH
Assay: biochemical
Format: biochemical
Conditions: read-out: 20mM inhibition LmjIPCS
reported_metric: inhibition at 20000 µM (%)

[[record]]
compound = "C1CNCCN1"
target_or_test_system = "LmjIPCS (inositol phosphorylceramide synthase from L. major) (Leishmania major)"
endpoint_unit = "%"
reported_measurement = 5.42

[[record]]
compound = "CC(=O)[C@@]1(O)CC[C@H]2[C@@H]3C[C@H](C)C4=CC(=O)C=C[C@]4(C)[C@@]3(F)[C@@H](O)C[C@@]21C"
target_or_test_system = "LmjIPCS (inositol phosphorylceramide synthase from L. major) (Leishmania major)"
endpoint_unit = "%"
reported_measurement = 3

[[record]]
compound = "CC1=NS(=O)(=O)c2cc(Cl)ccc2N1 [DIAZOXIDE]"
target_or_test_system = "LmjIPCS (inositol phosphorylceramide synthase from L. major) (Leishmania major)"
endpoint_unit = "%"
reported_measurement = 5

[[record]]
compound = "C[C@H](CS)C(=O)N1CCC[C@H]1C(=O)O"
target_or_test_system = "LmjIPCS (inositol phosphorylceramide synthase from L. major) (Leishmania major)"
endpoint_unit = "%"
reported_measurement = 1.19

[[record]]
compound = "CN[C@@H]1[C@@H](O)[C@@H](O[C@@H]2[C@@H](O)[C@H](O[C@H]3O[C@H]([C@@H](C)O)[C@@H](O)[C@H](O)[C@H]3N)[C@@H](N)C[C@H]2N)OC[C@]1(C)O"
target_or_test_system = "LmjIPCS (inositol phosphorylceramide synthase from L. major) (Leishmania major)"
endpoint_unit = "%"
reported_measurement = 13

[[record]]
compound = "N[C@@H](CCC(=O)N[C@@H](CS)C(=O)NCC(=O)O)C(=O)O"
target_or_test_system = "LmjIPCS (inositol phosphorylceramide synthase from L. major) (Leishmania major)"
endpoint_unit = "%"
reported_measurement = -0.349

[[record]]
compound = "CC(=O)N[C@@H](CC(=O)O)C(=O)O [N-ACET[…]]"
target_or_test_system = "LmjIPCS (inositol phosphorylceramide synthase from L. major) (Leishmania major)"
endpoint_unit = "%"
reported_measurement = -3

[[record]]
compound = "CCCCC(=O)Oc1ccccc1C(=O)O [VALERYL SALYCILATE]"
target_or_test_system = "LmjIPCS (inositol phosphorylceramide synthase from L. major) (Leishmania major)"
endpoint_unit = "%"
reported_measurement = 10

[[record]]
compound = "O=C(O)CCNC(=O)c1ccccc1"
target_or_test_system = "LmjIPCS (inositol phosphorylceramide synthase from L. major) (Leishmania major)"
endpoint_unit = "%"
reported_measurement = -3.5

[[record]]
compound = "C/C=C1\\[C@H]2C=C(C)C[C@]1(N)c1ccc(=O)[nH]c1C2"
target_or_test_system = "LmjIPCS (inositol phosphorylceramide synthase from L. major) (Leishmania major)"
endpoint_unit = "%"
reported_measurement = 24

[[record]]
compound = "NCCc1ccc(O)c(O)c1"
target_or_test_system = "LmjIPCS (inositol phosphorylceramide synthase from L. major) (Leishmania major)"
endpoint_unit = "%"
reported_measurement = -1.1

[[record]]
compound = "CC(C(=O)O)c1cccc(Oc2ccccc2)c1 (stereo not drawn)"
target_or_test_system = "LmjIPCS (inositol phosphorylceramide synthase from L. major) (Leishmania major)"
endpoint_unit = "%"
reported_measurement = 6

[[record]]
compound = "CO[C@@H]1C[C@@H](C[C@H]2CC[C@H](C)[C@H]([C@@H](C)C(=O)O)O2)O[C@]2(O[C@](C)([C@H]3CC[C@@](C)([C@@H]4O[C@@H]([C@H]5O[C@@](O)(CO)[C@H](C)C[C@@H]5C)C[C@@H]4C)O3)C[C@H]2C)[C@@H]1C"
target_or_test_system = "LmjIPCS (inositol phosphorylceramide synthase from L. major) (Leishmania major)"
endpoint_unit = "%"
reported_measurement = -7.41

[[record]]
compound = "NC(Cn1ccc(=O)c(O)c1)C(=O)O (stereo not drawn)"
target_or_test_system = "LmjIPCS (inositol phosphorylceramide synthase from L. major) (Leishmania major)"
endpoint_unit = "%"
reported_measurement = 3

[[record]]
compound = "CS(=O)(=O)c1ccc([C@@H](O)[C@@H](CO)NC(=O)C(Cl)Cl)cc1"
target_or_test_system = "LmjIPCS (inositol phosphorylceramide synthase from L. major) (Leishmania major)"
endpoint_unit = "%"
reported_measurement = 0.377

[[record]]
compound = "COc1cc([C@@H]2c3cc4c(cc3[C@H](O)[C@H]3COC(=O)[C@@H]23)OCO4)cc(OC)c1OC"
target_or_test_system = "LmjIPCS (inositol phosphorylceramide synthase from L. major) (Leishmania major)"
endpoint_unit = "%"
reported_measurement = 7.47

[[record]]
compound = "C[N+]1(C)CCCC(OC(=O)C(O)(c2ccccc2)c2ccccc2)C1 (stereo not drawn) [MEPENZOLATE BROMIDE]"
target_or_test_system = "LmjIPCS (inositol phosphorylceramide synthase from L. major) (Leishmania major)"
endpoint_unit = "%"
reported_measurement = 16

[[record]]
compound = "CN1CCC[C@H]1c1cccnc1"
target_or_test_system = "LmjIPCS (inositol phosphorylceramide synthase from L. major) (Leishmania major)"
endpoint_unit = "%"
reported_measurement = 10

